The values you see were collected from patent US12497396B2.

- Target Or System: CYP3A4 (Homo sapiens, UniProt P08684)
- Construct: from tissue; host or cells: human liver microsomes
- Sequence (P08684 whole entry): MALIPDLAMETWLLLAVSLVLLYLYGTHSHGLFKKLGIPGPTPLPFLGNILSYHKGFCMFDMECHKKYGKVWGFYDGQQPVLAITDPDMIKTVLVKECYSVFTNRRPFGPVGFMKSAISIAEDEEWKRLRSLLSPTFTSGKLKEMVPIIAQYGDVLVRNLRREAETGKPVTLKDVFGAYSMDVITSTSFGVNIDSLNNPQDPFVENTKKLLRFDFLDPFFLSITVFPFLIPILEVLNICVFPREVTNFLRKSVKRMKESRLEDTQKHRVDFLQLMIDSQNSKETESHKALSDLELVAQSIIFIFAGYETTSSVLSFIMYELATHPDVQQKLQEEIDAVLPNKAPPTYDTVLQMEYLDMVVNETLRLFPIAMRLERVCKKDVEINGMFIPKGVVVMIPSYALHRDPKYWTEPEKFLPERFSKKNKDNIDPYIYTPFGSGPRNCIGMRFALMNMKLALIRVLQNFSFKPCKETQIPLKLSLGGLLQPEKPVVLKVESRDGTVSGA
- Assay Notes: CYP enzyme single point inhibition, human liver microsomes, 3A4
- Format: in vitro ADME
- Measurement Conditions: single point method, 3A4-M, read-out: IC50 (nM) 3A4-M
Recorded Endpoint: IC50

Compound	Recorded Endpoint	Value
C=CC(=O)N1C[C@H](C)N(c2nc(=O)n(-c3c(SC)ccnc3C(C)C)c3nc(-c4c(N)ccc(Cl)c4F)c(Cl)cc23)C[C@H]1C (single isomer, unassigned) [Embodiment 165-1]	IC50	4.7 nM
C=CC(=O)N1C[C@H](C)N(c2nc(=O)n(-c3c(SC)ccnc3C(C)C)c3nc(-c4c(O)cccc4F)c(F)cc23)C[C@H]1C (single isomer, unassigned) [Embodiment 114-1]	IC50	19 nM

###

- Target Or System: human KRAS G12C protein (Homo sapiens, UniProt P01116, G12C)
- Construct: purchased Beijing SinoBiological Co., Ltd. 12259-H07E2
- Assay Notes: Thermal shift: melting temperature of KRAS G12C protein
- Format: binding
- Measurement Conditions: compound 10 μM; Tm minus Tm of DMSO solvent control
- Experimental: A solution containing […] (pH 7.5), 1 mM DTT, 5×SYPRO Orange and 150 mM NaCl was prepared as the experimental buffer, and a final concentration of 5.37 μM human KRAS G12C protein was added thereto. […]
Decision: ΔTm (° C.) compared against 10 °C; not below it gives fulfilled, below it gives not fulfilled.

                               entry_smiles                          target_or_system          group
0  C=CC(=O)N1CCN(c2nc(=O)n(-c3c(SC)ccnc3C(C)C)c3nc(-c4c(O)cccc4F)c(Cl)cc23)[C@@H](C)C1  human KRAS G12C protein (Homo sapiens, UniProt P01116, G12C)      fulfilled
1  C=CC(=O)N1CCN(c2nc(=O)n(-c3c(C)ccnc3C(C)C)c3nc(-c4c(F)cccc4C(=O)N(C)C)c(F)cc23)[C@@H](C)C1  human KRAS G12C protein (Homo sapiens, UniProt P01116, G12C)  not fulfilled
2  C=CC(=O)N1CCN(c2nc(=O)n(-c3c(SC)ccnc3C(C)C)c3nc(-c4c(F)cccc4SC)c(F)cc23)[C@@H](C)C1  human KRAS G12C protein (Homo sapiens, UniProt P01116, G12C)      fulfilled
3  C=CC(=O)N1CCN(c2nc(=O)n(-c3c(C)ccnc3CC(C)C)c3nc(-c4c(F)cccc4SCC)c(F)cc23)[C@@H](C)C1  human KRAS G12C protein (Homo sapiens, UniProt P01116, G12C)  not fulfilled
4  C=CC(=O)N1CCN(c2nc(=O)n(-c3c(C)ccnc3C(C)C)c3nc(-c4ccccc4SC)c(F)cc23)[C@@H](C)C1  human KRAS G12C protein (Homo sapiens, UniProt P01116, G12C)  not fulfilled

###

- Assay Notes: Pharmacokinetics in MiaPaca 2 tumor-bearing mice (plasma, tumor)
- Format: in vivo
- Measurement Conditions: female, mouse, po, tumor, 6 mg/kg p.o., read-out: MRT (hr) Tumor

Molecule	Value Units	MRT
C=CC(=O)N1C[C@H](C)N(c2nc(=O)n(-c3c(SC)ccnc3C(C)C)c3nc(-c4c(N)ccc(Cl)c4F)c(Cl)cc23)C[C@H]1C (single isomer, unassigned) [Embodiment 165-1]	h	1.5

###

- Assay Notes: in vitro
- Type: in vitro ADME
- Measurement Conditions: human, 60 min, 0.5 μM
List of Residual rate (%) 60 min values.

Compound	Value Units	Residual rate (%) 60 min
C=CC(=O)N1C[C@H](C)N(c2nc(=O)n(-c3c(SC)ccnc3C(C)C)c3nc(-c4c(O)cccc4F)c(Cl)cc23)C[C@H]1C (single isomer, unassigned) [Embodiment 166-1]	%	89.14
C=CC(=O)N1C[C@H](C)N(c2nc(=O)n(-c3c(SC)ccnc3C(C)C)c3nc(-c4c(N)ccc(Cl)c4F)c(Cl)cc23)C[C@H]1C (single isomer, unassigned) [Embodiment 165-1]	%	90.27
C=CC(=O)N1CCN(c2nc(=O)n(-c3c(C)ccnc3C(C)C)c3nc(-c4c(O)cccc4F)c(F)cc23)[C@@H](C)C1 [AMG 510, reference compound]	%	82.51
CC(C)[N+](C)(CCOC(=O)C1c2ccccc2Oc2ccccc21)C(C)C [Propantheline, reference compound]	%	14.65

###

- Target Or System: human KRAS G12C protein (Homo sapiens, UniProt P01116, G12C)
- Construct: purchased Beijing SinoBiological Co., Ltd. 12259-H07E2
- Assay Notes: Thermal shift: melting temperature of KRAS G12C protein
- Format: binding
- Measurement Conditions: KRAS G12C protein 5.37 μM with compound 10 μM, 1 hour incubation
Recorded Endpoint: Tm (° C.) (°C)

In [3]: df
Out[3]:
                                   molecule  recorded_endpoint  value_units  value
0  C=CC(=O)N1CCN(c2nc(=O)n(-c3c(SC)cc(C)nc3C(C)C)c3nc(-c4c(O)cccc4F)c(F)cc23)[C@@H](C)C1 [Embodiment 152]          Tm (° C.)           °C   60.0
1  C=CC(=O)N1CCN(c2nc(=O)n(-c3c(C)ccnc3C(C)C)c3nc(-c4c(F)cccc4SC)c(F)cc23)[C@@H](C)C1 [Embodiment 75]          Tm (° C.)           °C   61.2
2  C=CC(=O)N1CCN(c2nc(=O)n(-c3c(SC)ccnc3C(C)C)c3nc(-c4c(O)cccc4F)c(F)cc23)[C@@H](C)C1 [Embodiment 60]          Tm (° C.)           °C   60.2
3  C=CC(=O)N1CCN(c2nc(=O)n(-c3c(SC)ccnc3C(C)C)c3nc(-c4c(O)cccc4F)c(Cl)cc23)[C@@H](C)C1 [Embodiment 130]          Tm (° C.)           °C   61.5
4  C=CC(=O)N1C[C@H](C)N(c2nc(=O)n(-c3c(SC)ccnc3C(C)C)c3nc(-c4c(N)ccc(Cl)c4F)c(Cl)cc23)C[C@H]1C [Embodiment 165]          Tm (° C.)           °C   58.0
5  C=CC(=O)N1CCN(c2nc(=O)n(-c3c(SC)ccnc3C(C)C)c3nc(-c4c(F)cccc4SC)c(F)cc23)[C@@H](C)C1 [Embodiment 131]          Tm (° C.)           °C   61.2
6  C=CC(=O)N1CCN(c2nc(=O)n(-c3c(SC)ccnc3C(C)C)c3nc(-c4c(N)cccc4F)c(F)cc23)[C@@H](C)C1 [Embodiment 134]          Tm (° C.)           °C   64.4

###

- Assay Notes: Plasma stability, rat plasma
- Format: in vitro ADME
- Measurement Conditions: rat plasma, 37° C., 30 min
List of Residual rate (%) 30 min values.

Molecule	Value Units	Residual rate (%) 30 min
C=CC(=O)N1CCN(c2nc(=O)n(-c3c(C)ccnc3C(C)C)c3nc(-c4c(O)cccc4F)c(F)cc23)[C@@H](C)C1 [AMG 510, reference compound]	%	93.03
CC[C@H](C)C(=O)O[C@H]1C[C@@H](C)C=C2C=C[C@H](C)[C@H](CC[C@@H]3C[C@@H](O)CC(=O)O3)[C@H]21 [Lovastatin, reference compound]	%	1.77
C=CC(=O)N1C[C@H](C)N(c2nc(=O)n(-c3c(SC)ccnc3C(C)C)c3nc(-c4c(N)ccc(Cl)c4F)c(Cl)cc23)C[C@H]1C (single isomer, unassigned)	%	96.73
C=CC(=O)N1C[C@H](C)N(c2nc(=O)n(-c3c(SC)ccnc3C(C)C)c3nc(-c4c(O)cccc4F)c(Cl)cc23)C[C@H]1C (single isomer, unassigned)	%	98.32

###

- Assay Notes: Plasma stability, dog plasma
- Format: in vitro ADME
- Measurement Conditions: dog plasma, 37° C., 60 min
List of Residual rate (%) 60 min values.

Compound	Residual rate (%) 60 min
CC[C@H](C)C(=O)O[C@H]1C[C@@H](C)C=C2C=C[C@H](C)[C@H](CC[C@@H]3C[C@@H](O)CC(=O)O3)[C@H]21 [Lovastatin, reference compound]	75.66
C=CC(=O)N1C[C@H](C)N(c2nc(=O)n(-c3c(SC)ccnc3C(C)C)c3nc(-c4c(N)ccc(Cl)c4F)c(Cl)cc23)C[C@H]1C (single isomer, unassigned)	94.86
C=CC(=O)N1C[C@H](C)N(c2nc(=O)n(-c3c(SC)ccnc3C(C)C)c3nc(-c4c(O)cccc4F)c(Cl)cc23)C[C@H]1C (single isomer, unassigned)	93.69
C=CC(=O)N1CCN(c2nc(=O)n(-c3c(C)ccnc3C(C)C)c3nc(-c4c(O)cccc4F)c(F)cc23)[C@@H](C)C1 [AMG 510, reference compound]	93.43
